SYSTEM_NAME: T1, His/Avi-CynoIL18BP (recombinant cynomolgus IL-18BP with His and Avi tags) (cynomolgus monkey)
T1 construct: also called cynomolgus IL-18BP-Avi-His
T1 chain: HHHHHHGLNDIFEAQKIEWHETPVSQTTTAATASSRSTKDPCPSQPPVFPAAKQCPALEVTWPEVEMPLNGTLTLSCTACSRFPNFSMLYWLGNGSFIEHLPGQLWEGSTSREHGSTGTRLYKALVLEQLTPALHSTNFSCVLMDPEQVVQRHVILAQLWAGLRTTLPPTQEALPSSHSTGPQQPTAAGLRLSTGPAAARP
METHOD_NOTES: SPR Biacore T200, IgG captured on Protein A/G
PARAMETER_MEASURED: koff (s⁻¹)
Kindly answer with a numeric value in s⁻¹, unit omitted.

Inquiry: Consider the binder anti-IL-18BP antibody variant BP-04.08 (antibody, V domains shown) VH: QVQLVQSGAEVKKPGASVKVSCKASGYTFTDYDMHWVRQAPGQGLEWMGIYSTYYGDVSYAQKKQGRVTMTRDKSTSTVYMELSSLRSEDTAVYYCARSGTYNYGTRESHALDYWGQGTLVTVSS VL: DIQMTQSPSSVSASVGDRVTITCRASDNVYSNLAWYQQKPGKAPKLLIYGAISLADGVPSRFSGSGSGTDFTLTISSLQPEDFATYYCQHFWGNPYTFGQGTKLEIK and give its recorded koff.
Reply text: 0.014
